- PROCEDURE SUMMARY: Phase 1 PK Part 1: relative bioavailability, dose proportionality, food effect of unmilled API tablet
- Type: in vivo, human
- CONDITION INFO: human, plasma, oral, 10 mg, Food effect, completers; Treatment D (Test): 1 × 10 mg Formulation Concept 1, after high-fat breakfast; read-out: Geometric Mean Cmax
MEASURED ENDPOINT: Cmax (ng/mL)
Provide the reading as a plain figure in ng/mL.

So for Cc1cc(C)cc(C2CCCN2Cc2ccc(Oc3ccc(C(N)=O)cc3F)cc2)c1 (stereo not shown) , the logged Cmax turned out to be 36.6

----------
- PROCEDURE SUMMARY: Phase 1 PK Part 1: relative bioavailability, dose proportionality, food effect of unmilled API tablet
- Assay type: in vivo, human
- CONDITION INFO: Food effect, completers; Treatment B (Reference): 1 × 10 mg Formulation Concept 1, fasting
MEASURED ENDPOINT: Geometric Mean Cmax (µg/mL)
Provide the reading as a plain figure in µg/mL.

So for Cc1cc(C)cc(C2CCCN2Cc2ccc(Oc3ccc(C(N)=O)cc3F)cc2)c1 (stereo not shown) [aticaprant] , the logged Geometric Mean Cmax turned out to be 0.0326

----------
- PROCEDURE SUMMARY: Phase 1 PK Part 1: relative bioavailability, dose proportionality, food effect of unmilled API tablet
- Assay type: in vivo, human
- CONDITION INFO: human, plasma, oral, 10 mg, Food effect, completers; Treatment B (Reference): 1 × 10 mg Formulation Concept 1, fasting; read-out: Geometric Mean AUClast
MEASURED ENDPOINT: AUC(0-t)

So for Cc1cc(C)cc(C2CCCN2Cc2ccc(Oc3ccc(C(N)=O)cc3F)cc2)c1 (stereo not shown) , the logged AUC(0-t) turned out to be 270 ng·h/mL

----------
- PROCEDURE SUMMARY: Phase 1 PK Part 1: relative bioavailability, dose proportionality, food effect of unmilled API tablet
- Format: in vivo, human
- CONDITION INFO: human, plasma, oral, 10 mg, Food effect, completers; Treatment B (Reference): 1 × 10 mg Formulation Concept 1, fasting; read-out: Geometric Mean AUC∞
MEASURED ENDPOINT: AUC(0-inf)
Report as: number unit

So for Cc1cc(C)cc(C2CCCN2Cc2ccc(Oc3ccc(C(N)=O)cc3F)cc2)c1 (stereo not shown) [aticaprant] , the logged AUC(0-inf) turned out to be 287 ng·h/mL

----------
- PROCEDURE SUMMARY: Phase 1 PK Part 2: relative bioavailability, dose proportionality, food effect of milled API tablet
- Type: in vivo, human
- CONDITION INFO: human, plasma, oral, 10 mg, Dose proportionality, completers; Treatment F (Reference): 1 × 10 mg Formulation Concept 2, fasting; read-out: Geometric Mean AUC∞
MEASURED ENDPOINT: AUC(0-inf)
Report as: number unit

So for Cc1cc(C)cc(C2CCCN2Cc2ccc(Oc3ccc(C(N)=O)cc3F)cc2)c1 (stereo not shown) , the logged AUC(0-inf) turned out to be 279 ng·h/mL
